# Assay Procedure: Tmax in Sprague-Dawley rat at 10 mg/kg, po measured at 5 to 24 hrs by UPLC-MS/MS analysis
# Type: ADME, organism-based
# Measurement Parameters: in vivo, time 5-24 hrs
Result Type: Tmax (h)

given_smiles=COc1cccc(COc2ccc(/C=C/C(=O)Nc3nc4ccccc4[nH]3)cc2)c1 recorded_measurement=3.5

====

# System: RAW264.7
# Assay Procedure: Antiinflammatory activity in LPS-induced mouse RAW264.7 cells assessed as decrease in LPS-induced TNF-alpha secretion pretreated for 30 mins followed by LPS-induction and measured after 24 hrs by ELISA analysis
# Type: functional, cell-based
Result Type: IC50 (µM)

given_smiles=COc1cccc(COc2ccc(/C=C/C(=O)Nc3nc4ccccc4[nH]3)cc2)c1 system=RAW264.7 unit_symbol=µM recorded_measurement=8.41

Measured values drawn from ChEMBL document CHEMBL5346935 for this set.
